# assayed target: ER β (Homo sapiens)
# Sequence (Q92731 whole entry, species assumed): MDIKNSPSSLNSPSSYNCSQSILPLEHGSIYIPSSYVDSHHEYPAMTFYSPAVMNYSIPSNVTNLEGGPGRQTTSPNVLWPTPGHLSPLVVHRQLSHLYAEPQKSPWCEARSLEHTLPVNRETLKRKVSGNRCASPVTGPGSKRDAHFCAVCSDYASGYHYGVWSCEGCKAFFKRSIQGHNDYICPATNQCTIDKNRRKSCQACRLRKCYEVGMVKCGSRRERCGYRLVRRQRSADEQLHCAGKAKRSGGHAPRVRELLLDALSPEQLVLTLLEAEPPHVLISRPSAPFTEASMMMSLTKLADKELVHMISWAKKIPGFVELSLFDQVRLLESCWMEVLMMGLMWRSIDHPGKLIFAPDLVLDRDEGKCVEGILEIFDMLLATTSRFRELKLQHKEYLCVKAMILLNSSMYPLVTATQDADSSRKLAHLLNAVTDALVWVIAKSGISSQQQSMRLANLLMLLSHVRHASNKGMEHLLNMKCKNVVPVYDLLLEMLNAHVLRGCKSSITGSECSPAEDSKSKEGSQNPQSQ
# protocol summary: Receptor binding assay for estrogen receptor beta
# measurement conditions: summary of Tables 3 to 5
Peptide text beside a SMILES is read from it.
readout kind: recognition of / binding activity to estrogen receptor β

# molecule, recorded measurement
measured = [
    ("C[C@H](N)C(=O)N[C@@H](CCCNC(=N)N)C(=O)N[C@@H](Cc1c[nH]c2ccccc12)C(=O)N[C@@H](Cc1ccccc1)C(=O)N[C@@H](Cc1ccccc1)C(=O)N[C@@H](CCC(=O)O)C(=O)O [Peptide A-43, ARWFFE] (H-ARWFFE-OH)", "not β"),
    ("N=C(N)NCCC[C@H](NC(=O)[C@@H](N)CCCCN)C(=O)N[C@@H](Cc1c[nH]c2ccccc12)C(=O)N[C@@H](Cc1ccccc1)C(=O)N[C@@H](Cc1ccccc1)C(=O)N[C@@H](CCC(=O)O)C(=O)O [Peptide 44, KRWFFE] (H-KRWFFE-OH)", "recognized"),
    ("CC(C)[C@H](N)C(=O)N[C@@H](CO)C(=O)N[C@@H](Cc1c[nH]c2ccccc12)C(=O)N[C@@H](Cc1ccccc1)C(=O)N[C@@H](Cc1ccccc1)C(=O)N[C@@H](CCC(=O)O)C(=O)O [Peptide B34, VSWFFE] (H-VSWFFE-OH)", "recognized"),
]

----------
pIC50 reference
# assayed target: anti-estradiol mAb clone 15
# protocol summary: Competitive immunoassay: inhibition of binding of labeled E2 (estradiol ovalbumin europium conjugate) to anti-E2 clone 15
# measurement conditions: Table 5; estradiol ovalbumin europium conjugate
Peptide text beside a SMILES is read from it.
Friendly reminder that pIC50 comes from taking -log10 of the concentration in mol/L.

# compound, pIC50
records = [
    ("NCCCC[C@H](N)C(=O)N1CCC[C@H]1C(=O)N[C@@H](Cc1c[nH]c2ccccc12)C(=O)N[C@@H](Cc1ccccc1)C(=O)N[C@@H](Cc1ccccc1)C(=O)N[C@@H](CCC(=O)O)C(=O)O [Peptide 21, KPWFFE] (H-KPWFFE-OH)", 7.35),
    ("CC(C)C[C@H](N)C(=O)N[C@@H](CCCNC(=N)N)C(=O)N[C@@H](Cc1c[nH]c2ccccc12)C(=O)N[C@@H](Cc1ccccc1)C(=O)N[C@@H](Cc1ccccc1)C(=O)N[C@@H](CCC(=O)O)C(=O)O [Peptide B38, LRWFFE] (H-LRWFFE-OH; N-terminus and C-terminus assumed)", 7.40),
    ("CC[C@H](C)[C@H](N)C(=O)N[C@@H](CCCNC(=N)N)C(=O)N[C@@H](Cc1c[nH]c2ccccc12)C(=O)N[C@@H](Cc1ccccc1)C(=O)N[C@@H](Cc1ccccc1)C(=O)N[C@@H](CCC(=O)O)C(=O)O [Peptide B37, IRWFFE] (H-IRWFFE-OH)", 7.70),
]

Next:
What value of measured pIC50 is listed for CC(C)[C@H](N)C(=O)N[C@@H](CO)C(=O)N[C@@H](Cc1c[nH]c2ccccc12)C(=O)N[C@@H](Cc1ccccc1)C(=O)N[C@@H](Cc1ccccc1)C(=O)N[C@@H](CCC(=O)O)C(=O)O [Peptide B34, VSWFFE] (H-VSWFFE-OH) ? 8.22

----------
# assayed target: ER α (Homo sapiens, UniProt P03372)
# Sequence (P03372 whole entry, species assumed): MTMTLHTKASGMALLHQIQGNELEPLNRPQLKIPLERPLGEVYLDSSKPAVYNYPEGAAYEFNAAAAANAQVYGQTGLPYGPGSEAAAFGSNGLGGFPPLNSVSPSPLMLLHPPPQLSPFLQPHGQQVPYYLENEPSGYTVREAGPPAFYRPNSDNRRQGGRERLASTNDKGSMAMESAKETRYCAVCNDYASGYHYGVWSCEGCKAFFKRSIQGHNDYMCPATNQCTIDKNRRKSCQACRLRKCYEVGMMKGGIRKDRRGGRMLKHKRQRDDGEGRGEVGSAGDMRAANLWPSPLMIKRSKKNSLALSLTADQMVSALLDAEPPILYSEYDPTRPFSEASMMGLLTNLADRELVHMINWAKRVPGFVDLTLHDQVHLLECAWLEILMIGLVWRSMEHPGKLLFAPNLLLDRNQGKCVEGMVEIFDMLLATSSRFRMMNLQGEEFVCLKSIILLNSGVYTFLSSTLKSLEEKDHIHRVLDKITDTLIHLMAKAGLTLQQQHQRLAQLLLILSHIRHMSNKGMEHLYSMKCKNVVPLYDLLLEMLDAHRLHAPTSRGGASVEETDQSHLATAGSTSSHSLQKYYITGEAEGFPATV
# protocol summary: Receptor binding assay for estrogen receptor alpha
# measurement conditions: summary of Tables 3 to 5
Peptide text beside a SMILES is read from it.
readout kind: recognition of / binding activity to estrogen receptor α

# compound, recorded measurement
records = [
    ("CC(C)[C@H](N)C(=O)N[C@@H](CO)C(=O)N[C@@H](Cc1c[nH]c2ccccc12)C(=O)N[C@@H](Cc1ccccc1)C(=O)N[C@@H](Cc1ccccc1)C(=O)N[C@@H](CCC(=O)O)C(=O)O [Peptide B34, VSWFFE] (H-VSWFFE-OH)", "recognized"),
    ("C[C@H](NC(=O)[C@@H](N)CCCCN)C(=O)N[C@@H](Cc1c[nH]c2ccccc12)C(=O)N[C@@H](Cc1ccccc1)C(=O)N[C@@H](Cc1ccccc1)C(=O)N[C@@H](CCC(=O)O)C(=O)O [Peptide A-44, KAWFFE] (H-KAWFFE-OH)", "recognized"),
]

----------
# assayed target: ER β (Homo sapiens)
# protocol summary: Receptor binding assay for estrogen receptor beta
# measurement conditions: summary of Tables 3 to 5
Peptide text beside a SMILES is read from it.
readout kind: recognition of / binding activity to estrogen receptor β

# molecule, recorded measurement
rows = [
    ("C[C@H](NC(=O)[C@@H](N)CCCCN)C(=O)N[C@@H](Cc1c[nH]c2ccccc12)C(=O)N[C@@H](Cc1ccccc1)C(=O)N[C@@H](Cc1ccccc1)C(=O)N[C@@H](CCC(=O)O)C(=O)O [Peptide A-44, KAWFFE] (H-KAWFFE-OH)", "recognized"),
    ("NCCCC[C@H](N)C(=O)N1CCC[C@H]1C(=O)N[C@@H](Cc1c[nH]c2ccccc12)C(=O)N[C@@H](Cc1ccccc1)C(=O)N[C@@H](Cc1ccccc1)C(=O)N[C@@H](CCC(=O)O)C(=O)O [Peptide 21, KPWFFE] (H-KPWFFE-OH)", "recognized"),
]

----------
# assayed target: UniProt P03372
# protocol summary: Receptor binding assay for estrogen receptor alpha
# measurement conditions: Table 5; read-out: IC50 to ER α
Peptide text beside a SMILES is read from it.
Catalogue of molecules with associated pIC50
The scale used: pIC50 is minus the common logarithm of the concentration in molar units.

Which pIC50 is reported for this molecule? N=C(N)NCCC[C@H](NC(=O)[C@@H](N)CCCCN)C(=O)N[C@@H](Cc1c[nH]c2ccccc12)C(=O)N[C@@H](Cc1ccccc1)C(=O)N[C@@H](Cc1ccccc1)C(=O)N[C@@H](CCC(=O)O)C(=O)O [Peptide 44, KRWFFE] (H-KRWFFE-OH) 3.40

Continue with CC(C)[C@H](N)C(=O)N[C@@H](CO)C(=O)N[C@@H](Cc1c[nH]c2ccccc12)C(=O)N[C@@H](Cc1ccccc1)C(=O)N[C@@H](Cc1ccccc1)C(=O)N[C@@H](CCC(=O)O)C(=O)O [Peptide B34, VSWFFE] (H-VSWFFE-OH) 3.60

And what about the molecule C[C@H](NC(=O)[C@@H](N)CCCCN)C(=O)N[C@@H](Cc1c[nH]c2ccccc12)C(=O)N[C@@H](Cc1ccccc1)C(=O)N[C@@H](Cc1ccccc1)C(=O)N[C@@H](CCC(=O)O)C(=O)O [Peptide A-44, KAWFFE] (H-KAWFFE-OH) ? 3.60
